- Test description: Antiproliferative activity against human Hep2 cells assessed as cell survival fraction at 100 ug/mL after 24 hrs by MTT assay
- Type: cell-based
- Condition context: HEp-2 cells, read-out: Survival
Binarize viability at 24 h, 100 ug/mL at 6%; below is YES, at or above is NO.

| Compound | Group label |
| --- | --- |
| CCCCC/C(C)=N/Nc1nc(-c2ccc(I)cc2)cs1 | YES |
| CC1CC/C(=N\Nc2nc(-c3ccc(I)cc3)cs2)C1 (stereo not drawn) | NO |
| Clc1ccccc1C(c1ccccc1)(c1ccccc1)n1ccnc1 | NO |
| CCC/C(C)=N/Nc1nc(-c2ccc(I)cc2)cs1 | YES |
| C/C(=N\Nc1nc(-c2ccc(I)cc2)cs1)c1ccncc1 | YES |
| Ic1ccc(-c2csc(N/N=C/c3cccc4ccccc34)n2)cc1 | YES |
| CCC(CC)=NNc1nc(-c2ccc(I)cc2)cs1 | NO |

====

- Test description: Antiproliferative activity against human Hep2 cells assessed as cell survival fraction at 0.05 ug/mL after 24 hrs by MTT assay
- Assay type: cell-based
- Condition context: HEp-2 cells, read-out: Survival
Readout type: viability at 24 h, 0.05 ug/mL

| Compound | Readout type | Observed |
| --- | --- | --- |
| CC1CCC/C1=N\Nc1nc(-c2ccc(I)cc2)cs1 (stereo not drawn) | viability at 24 h, 0.05 ug/mL | 100% |
| Clc1ccccc1C(c1ccccc1)(c1ccccc1)n1ccnc1 | viability at 24 h, 0.05 ug/mL | 100% |
| C/C(=N\Nc1nc(-c2ccc(I)cc2)cs1)c1ccncc1 | viability at 24 h, 0.05 ug/mL | 95% |
| CCC/C(C)=N/Nc1nc(-c2ccc(I)cc2)cs1 | viability at 24 h, 0.05 ug/mL | 100% |
| CCCCC/C(C)=N/Nc1nc(-c2ccc(I)cc2)cs1 | viability at 24 h, 0.05 ug/mL | 100% |
| Ic1ccc(-c2csc(N/N=C/c3cccc4ccccc34)n2)cc1 | viability at 24 h, 0.05 ug/mL | 95% |
| CC1CC/C(=N\Nc2nc(-c3ccc(I)cc3)cs2)C1 (stereo not drawn) | viability at 24 h, 0.05 ug/mL | 100% |
| CCC(CC)=NNc1nc(-c2ccc(I)cc2)cs1 | viability at 24 h, 0.05 ug/mL | 95% |

====

- Test description: Cytotoxicity against human Hep2 cells assessed as cell survival fraction at 0.5 ug/mL after 24 hrs by trypan blue exclusion method
- Type: cell-based
- Condition context: HEp-2 cells, read-out: Survival
This listing pairs molecules with measured viability at 24 h, 0.5 ug/mL.
Readout type: viability at 24 h, 0.5 ug/mL (%)

| Molecule | Observed |
| --- | --- |
| Clc1ccccc1C(c1ccccc1)(c1ccccc1)n1ccnc1 | 87 |
| CC1CC/C(=N\Nc2nc(-c3ccc(I)cc3)cs2)C1 (stereo not drawn) | 92 |
| CCCCC/C(C)=N/Nc1nc(-c2ccc(I)cc2)cs1 | 95 |
| CCC/C(C)=N/Nc1nc(-c2ccc(I)cc2)cs1 | 75 |
| CC1CCC/C1=N\Nc1nc(-c2ccc(I)cc2)cs1 (stereo not drawn) | 89 |
| C/C(=N\Nc1nc(-c2ccc(I)cc2)cs1)c1ccncc1 | 85 |
| CCC(CC)=NNc1nc(-c2ccc(I)cc2)cs1 | 85 |
| Ic1ccc(-c2csc(N/N=C/c3cccc4ccccc34)n2)cc1 | 80 |
